Molecular target: NlugOBP2 (Nilaparvata lugens)
Sequence (B6E9U2 entry or part of it): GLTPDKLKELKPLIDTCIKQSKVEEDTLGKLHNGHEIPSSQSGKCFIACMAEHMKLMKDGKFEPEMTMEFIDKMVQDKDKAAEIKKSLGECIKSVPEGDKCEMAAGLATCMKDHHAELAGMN
Assay: Competitive fluorescence binding assay (1-NPN probe) with recombinant NlugOBP2
experimental-readout: binding ability with NlugOBP2 (in words)

COC(C)(C)CCC[C@H](C)C/C=C/C(C)=C/C(=O)OC(C)C (racemic) [Ligand 39, Methoprene] ... high binding ability
CC(C)=CCC/C(C)=C/CC/C(C)=C/CO [Ligand 5, Farnesol] ... high binding ability

====

Biological target: NlugOBP3 (Nilaparvata lugens)
Experiment: Competitive fluorescence binding assay (1-NPN probe) with recombinant NlugOBP3
Conditions: calculated from IC50; protein and 1-NPN at 2 µM; pH 7.4; read-out: OBP3 Ki
experimental-readout: Ki (µM)

For orientation, consider the following solved cases.
OCCc1ccccc1 ... 26.1
CCCCCCCCCCCCCC(C)=O ... 9.6
CCC/C=C/COC(C)=O [Ligand 20, (E)-2-Hexenyl acetate] ... 22.4

I. CC(C)(C)c1cccc(C(C)(C)C)c1O
II. CCCCCCOC(C)=O [Ligand 21, Hexyl acetate]
III. CC(C)=CCC/C(C)=C/CC/C(C)=C/CO
Query :: Let's sort these by Ki, smallest first. Go ahead? Form entry: ranked labels (order as requested).
Result :: III, I, II

P. C=CC(C)(O)CC/C=C(\C)CCC=C(C)C (racemic) [Ligand 3, (+/-)Nerolidol]
Q. CC/C=C\CCOC(C)=O [Ligand 22, (Z)-3-Hexenyl acetate]
Query :: Would you mind telling me which has the lower recorded Ki between P and Q ? Write down the label attached to your selection.
Result :: P
(P: 17.7 µM, Q: 27.1 µM)

1. CCCCCCCCCCCCCCCC(=O)O
2. CC(=O)c1ccccc1
Query :: Would you mind telling me which has the lower recorded Ki between 1 and 2 ? Write down the label attached to your selection.
Result :: 1
(1: 7.2 µM, 2: 23.1 µM)

A. CCCCCCCCCCCC=O
B. CCCCCCCCCCCC(C)=O
Query :: // pick larger Ki from pair: A vs B Write down the label attached to your selection.
Result :: A
(A: 18.9 µM, B: 8.6 µM)

====

Biological target: NlugOBP2
Assay: Competitive fluorescence binding assay (1-NPN probe) with recombinant NlugOBP2
Details: calculated from IC50; protein and 1-NPN at 2 µM; pH 7.4; read-out: OBP2 Ki
experimental-readout: Ki (µM)
The answer is to be given in µM; state only the numeric part.

Query :: Param item = C[C@@H]1CC[C@H]2C(C)(C)[C@H]3C[C@@]12CC[C@@]3(C)O ; retrieve measured Ki.
Result :: 30.1

====

Target: NlugOBP3 (Nilaparvata lugens, UniProt B6E9U3)
Sequence (B6E9U3 entry or part of it): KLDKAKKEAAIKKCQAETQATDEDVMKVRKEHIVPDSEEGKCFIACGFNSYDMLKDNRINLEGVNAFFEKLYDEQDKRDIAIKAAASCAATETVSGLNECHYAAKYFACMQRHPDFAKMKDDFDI
Assay: Competitive fluorescence binding assay (1-NPN probe) with recombinant NlugOBP3
Conditions: read-out: Ki with NlugOBP3
experimental-readout: Ki (µM)
The answer is to be given in µM; state only the numeric part.

Query :: Param item = C=CC(=C)CCC=C(C)C ; retrieve measured Ki.
Result :: 7.2

====

Target: UniProtKB B6E9U3
Assay: Competitive fluorescence binding assay (1-NPN probe) with recombinant NlugOBP3
Conditions: displacement of 1-NPN; protein and 1-NPN at 2 µM; 50 mM Tris-HCl pH 7.4; read-out: OBP3 IC50
experimental-readout: IC50 (µM)

For orientation, consider the following solved cases.
C=CC(C)(O)CC/C=C(\C)CCC=C(C)C (racemic) [Ligand 3, (+/-)Nerolidol] ... 24.8
CCCCCCCCCCCC=O ... 26.5
CC(C)(C)c1cccc(C(C)(C)C)c1O ... 13.3
CC(=O)c1ccccc1 ... 32.4
CCCCCCOC(C)=O [Ligand 21, Hexyl acetate] ... 30.8

A. CCCCCCCCCCCC(C)=O
B. OCCc1ccccc1
C. CC(C)=CCC/C(C)=C/CC/C(C)=C/CO
Query :: Let's sort these by IC50, smallest first. Go ahead? Form entry: ranked labels (order as requested).
Result :: C, A, B

1. CCCCCCCCCCCCCCCC(=O)O
2. CCC/C=C/COC(C)=O [Ligand 20, (E)-2-Hexenyl acetate]
Query :: // pick larger IC50 from pair: 1 vs 2 Write down the label attached to your selection.
Result :: 2
(2: 31.3 µM, 1: 10.1 µM)
